Molecular target: full-length recombinant human FYN A (Homo sapiens (Human))
Assay: ADP-Glo Kinase Assay of FYN kinase inhibition
Format: biochemical
Settings: primary screen, initial compounds
pIC50: −log10 of the molar value.
assayEndpoint: pIC50

smilesData: COc1ccc(-c2cncc(-c3cccc(NC(C)=O)c3)n2)cc1
pIC50: 5.46
//
smilesData: c1coc(-c2ccnc3[nH]nc(C4CC4)c23)c1
pIC50: 4.90
//
smilesData: c1ccc2oc(-c3cnc4ccc(NCc5ccncc5)nn34)cc2c1
pIC50: 5.19
//
smilesData: OCc1cccc(-c2cnc3ccc(-c4ccoc4)nn23)c1
pIC50: 5.40
//
smilesData: COc1ccc(-c2cnc3ccc(-c4ccoc4)nn23)cc1OC
pIC50: 6.01
//
smilesData: Nc1ccc(-c2cn3c(-c4cccs4)cnc3cn2)cn1
pIC50: 5.09

1 = CC(=O)Nc1cccc(-c2cnc3sc(NCCc4ccncc4)nn23)c1
2 = COc1cc(OC)cc(-c2cnc3cnc(-c4ccc(C(=O)NCCCN(C)C)cc4)cn23)c1
Task: When the recorded pIC50 values are compared, which is smaller: that of 1 or that of 2 ? # answer = label of selected item
Output: 2

I = COc1cc(-c2cnc3ccc(-c4cccc(C(F)(F)F)c4)nn23)ccc1O
II = COc1ccc(OC)c(-n2c(-c3ccc(F)cc3)cn3c4c(=O)[nH]c(=O)n(C)c4nc23)c1
Task: When the recorded pIC50 values are compared, which is smaller: that of I or that of II ? # answer = label of selected item
Output: II

###

Target: full-length recombinant human FYN A (Homo sapiens (Human), UniProt P06241)
Sequence (P06241 whole entry): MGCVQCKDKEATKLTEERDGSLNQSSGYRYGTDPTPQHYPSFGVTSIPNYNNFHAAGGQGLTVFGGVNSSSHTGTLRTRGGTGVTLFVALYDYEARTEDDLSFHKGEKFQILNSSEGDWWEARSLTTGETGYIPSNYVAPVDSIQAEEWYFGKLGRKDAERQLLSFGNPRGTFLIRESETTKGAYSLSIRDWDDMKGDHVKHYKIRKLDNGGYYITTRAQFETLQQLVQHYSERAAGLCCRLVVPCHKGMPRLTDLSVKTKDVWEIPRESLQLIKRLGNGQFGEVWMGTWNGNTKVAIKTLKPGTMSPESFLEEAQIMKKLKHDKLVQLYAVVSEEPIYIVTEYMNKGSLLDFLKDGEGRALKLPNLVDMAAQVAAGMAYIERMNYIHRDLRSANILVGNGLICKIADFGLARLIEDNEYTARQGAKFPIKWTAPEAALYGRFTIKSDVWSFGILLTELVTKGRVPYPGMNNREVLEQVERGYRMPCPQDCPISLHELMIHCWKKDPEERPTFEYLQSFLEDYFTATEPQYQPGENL
Assay: ADP-Glo Kinase Assay of FYN kinase inhibition
Type: biochemical
Details: primary screen, initial compounds
assayEndpoint: IC50 (µM)

Please review the entries below; each comes with its answer.
compound: COc1cc(-c2cc(-c3ccc(F)cc3)cnc2N)ccc1O
IC50 [µM]: 3.24

compound: CC(C)[C@@H](CO)Nc1ccc2ncc(-c3ccc(C#N)cc3)n2n1
IC50 [µM]: 3.18

compound: Cn1cc(-c2cn3c(-c4ccc(Oc5ccccc5)cc4)cnc3cn2)cn1
IC50 [µM]: 1.93

compound: CN(C)c1ccc(-c2ccc3ncc(-c4ccncc4)n3n2)cc1
IC50 [µM]: 0.398

compound: CC(=O)c1cccc(-c2cnc3ccc(-c4ccoc4)nn23)c1
IC50 [µM]: 3.44

a = c1cncc(-c2cnc3sc(NCC4CCOCC4)nn23)c1
b = CC(=O)Nc1cccc(-c2ccc3ncc(-c4ccncc4)n3n2)c1
c = COc1ccccc1-c1n[nH]c2nccc(-c3cccc(F)c3)c12
d = COc1ccc(-c2cnc3sc(NCCc4ccncc4)nn23)cc1OC
e = CC(=O)c1cccc(-c2cnc3ccc(-c4cnn(C)c4)nn23)c1
Task: Hey, quick one: sort these by IC50, largest value first please. Use the labels to give the requested order.
Output: a, d, c, b, e

P = COc1ccc(-c2cnc3ccc(NCc4cccs4)nn23)cc1
Q = OCCCNc1ccc2ncc(-c3ccc4[nH]ccc4c3)n2n1
Task: When the recorded IC50 values are compared, which is smaller: that of P or that of Q ? # answer = label of selected item
Output: Q

###

Biological target: full-length recombinant human FYN A (Homo sapiens (Human))
Assay: ADP-Glo Kinase Assay of FYN kinase inhibition
Assay type: biochemical
Conditions: primary screen, initial compounds
assayEndpoint: IC50 (nM)

Please review the entries below; each comes with its answer.
molecule: O=C(NCCO)c1ccc(-c2cn3c(-c4cccc(O)c4)cnc3cn2)cc1
IC50 [nM]: 1720
//
molecule: Nc1cccc(-c2cnc3ccc(NC4CCOCC4)nn23)c1
IC50 [nM]: 746
//
molecule: Nc1ccc(-c2cn3c(-c4ccsc4)cnc3cn2)cn1
IC50 [nM]: 2460
//
molecule: CC(=O)c1cccc(-c2cnc3sc(NC4CCC(O)CC4)nn23)c1 (stereo not shown)
IC50 [nM]: 487
//
molecule: c1cc(-c2ccc3ncc(-c4ccc5c(c4)OCO5)n3n2)co1
IC50 [nM]: 1600

A = Cc1cccc(Cc2ccc3ncc(-c4ccncc4)n3n2)c1
B = CN(C)C(=O)c1cccc(-c2cnc3sc(NCc4ccc(F)cc4)nn23)c1
Task: Which of the two items, A and B , has the greater recorded IC50? # answer = label of selected item
Output: B

I = CN(C)CCCNC(=O)c1ccc(-c2cn3c(-c4cccc(Cl)c4)cnc3cn2)cc1
II = COc1cccc(-c2ccc3ncc(-c4cccc(NC(C)=O)c4)n3n2)c1
Task: Which of the two items, I and II , has the greater recorded IC50? # answer = label of selected item
Output: I
(I: 8430 nM, II: 409 nM)

###

Molecular target: full-length recombinant human FYN A (Homo sapiens (Human), UniProt P06241)
Experiment: ADP-Glo Kinase Assay of FYN kinase inhibition
Assay type: biochemical
Settings: primary screen, initial compounds
pIC50: −log10 of the molar value.
assayEndpoint: pIC50

Please review the entries below; each comes with its answer.
compound: OCc1ccc(-c2ccc3ncc(-c4ccc(CO)cc4)n3n2)cc1 [Compound 449]
experimentalSystem: full-length recombinant human FYN A (Homo sapiens (Human), UniProt P06241)
pIC50: 5.98
--
compound: OCc1ccc(-c2ccc3ncc(-c4ccncc4)n3n2)cc1 [Compound 332]
experimentalSystem: full-length recombinant human FYN A (Homo sapiens (Human), UniProt P06241)
pIC50: 6.59
--
compound: OCCCNc1ccc2ncc(-c3ccc4c(c3)OCO4)n2n1 [229_0248_0068]
experimentalSystem: full-length recombinant human FYN A (Homo sapiens (Human), UniProt P06241)
pIC50: 6.03
--
compound: COc1cc(-c2cnc(N)c(-c3ccc(O)cc3)c2)cc(OC)c1OC [382_7249_0087]
experimentalSystem: full-length recombinant human FYN A (Homo sapiens (Human), UniProt P06241)
pIC50: 6.68
--
compound: COc1cccc(-c2ccc3ncc(-c4ccc(CO)cc4)n3n2)c1 [Compound 365]
experimentalSystem: full-length recombinant human FYN A (Homo sapiens (Human), UniProt P06241)
pIC50: 5.81

1 = OCc1cccc(-c2ccc3ncc(-c4ccc5c(c4)OCO5)n3n2)c1 [Compound 370]
2 = CCC(CO)Nc1ccc2ncc(-c3ccc(OC)nc3)n2n1 (stereo not drawn) [229_0153_0311]
3 = O=C(NCCO)c1cccc(-c2ccc3ncc(-c4cccc(Cl)c4)n3n2)c1 [Compound 483]
4 = c1ccc(-c2n[nH]c3nccc(-c4cn[nH]c4)c23)cc1 [Compound 504]
Task: List by increasing pIC50. Use the labels to give the requested order.
Output: 3, 2, 4, 1

###

Molecular target: full-length recombinant human FYN A (Homo sapiens (Human), UniProt P06241)
Assay: ADP-Glo Kinase Assay of FYN kinase inhibition
Format: biochemical
Details: primary screen, initial compounds
assayEndpoint: IC50 (nM)

Please review the entries below; each comes with its answer.
smilesData: CC(=O)Nc1cccc(-c2cn3c(-c4ccsc4)cnc3cn2)c1
assayEndpoint: IC50
result: 2330

smilesData: COc1ccc(CNc2nn3c(-c4ccc(O)c(OC)c4)cnc3s2)cc1
assayEndpoint: IC50
result: 1780

smilesData: CC(=O)c1cccc(-c2cnc3ccc(-c4cccc(O)c4)nn23)c1
assayEndpoint: IC50
result: 994

smilesData: Fc1ccc(-c2cnc3ccc(NCc4cccs4)nn23)cc1
assayEndpoint: IC50
result: 3280

smilesData: COc1ccccc1-c1ccc2ncc(-c3cccc(CO)c3)n2n1
assayEndpoint: IC50
result: 1070

a = COc1ccc(-c2cn3c(-c4ccc(O)cc4)cnc3cn2)cn1
b = CS(=O)(=O)c1ccc(-c2cnc(N)c(-c3ccc(O)cc3)c2)cc1
c = CC(=O)c1cccc(-c2cnc3cnc(-c4ccc(C(=O)NCCN(C)C)cc4)cn23)c1
Task: Hey, quick one: sort these by IC50, largest value first please. Use the labels to give the requested order.
Output: c, a, b
(c: 4070 nM, a: 1980 nM, b: 1250 nM)

###

Molecular target: full-length recombinant human FYN A (Homo sapiens (Human), UniProt P06241)
Assay: ADP-Glo Kinase Assay of FYN kinase inhibition
Format: biochemical
Conditions: primary screen, initial compounds
assayEndpoint: IC50 (µM)

molecule: COc1ccc(-c2cnc3ccc(-c4ccc(F)cc4)nn23)cc1OC
result: 1.33

molecule: O=C(NCCO)c1cccc(-c2cn3c(-c4ccsc4)cnc3cn2)c1
result: 3.67

molecule: Fc1ccc(Cc2ccc3ncc(-c4ccncc4)n3n2)cc1
result: 1.45

molecule: Cn1cc(-c2cc(NC=O)c3ncc(-c4ccc(F)cc4)n3c2)cn1
result: 8.09

molecule: COc1cc(-c2cnc3ccc(-c4cccc(NC(C)=O)c4)nn23)ccc1O
result: 0.102

a = Nc1ccc(-c2cn3c(-c4ccc5c(c4)OCO5)cnc3cn2)cn1
b = CC(=O)Nc1cccc(-c2cnc3ccc(N[C@H](CO)C(C)C)nn23)c1
c = CN(C)CCNC(=O)c1cccc(-c2ccc3ncc(-c4cccs4)n3n2)c1
d = c1coc(-c2cn3c(-c4ccsc4)cnc3cn2)c1
Task: List by increasing IC50. Use the labels to give the requested order.
Output: b, c, d, a
(b: 0.801 µM, c: 1.16 µM, d: 6.25 µM, a: 10.2 µM)

I = CS(=O)(=O)Nc1cccc(-c2ccc3ncc(-c4cccc(CO)c4)n3n2)c1
II = CC(=O)c1cccc(-c2cnc3ccc(-c4cccc(CO)c4)nn23)c1
III = CC(=O)Nc1cccc(-c2cnc3ccc(-c4ccc(CO)cc4)nn23)c1
IV = COc1cc(-c2cnc3ccc(-c4cccc(O)c4)nn23)ccc1O
Task: List by increasing IC50. Use the labels to give the requested order.
Output: II, IV, III, I

a = CS(=O)(=O)Nc1cccc(-c2ccc3ncc(-c4cccnc4)n3n2)c1
b = COc1cc(-c2cc(-c3ccc(C(N)=O)cc3)cnc2N)cc(OC)c1OC
Task: Which of the two items, a and b , has the greater recorded IC50? # answer = label of selected item
Output: a

1 = CCC(CO)Nc1ccc2ncc(-c3cccc(OC)c3)n2n1 (stereo not drawn)
2 = COc1ccc(-c2cnc3cnc(-c4ccc(O)cc4)cn23)cc1
Task: Which of the two items, 1 and 2 , has the greater recorded IC50? # answer = label of selected item
Output: 2
